Listed binders paired with reported pKd
Molecular target: T1, human CDH17 as originally expressed in cells (cell surface CDH17 on AsPC1, GP2d and other cancer cell lines) (human, UniProt Q12864 23-832)
T1 construct: whole, on cells; Endogenous CDH17 on human cancer cell lines; AsPC1 and GP2d are named CDH17 positive; also called CDH17 positive AsPC1 cells; GP2d cells
Assay: flow cytometry titration on CDH17 positive AsPC1 cells
The meaning of pKd here: minus log10 of the concentration in molar units.

These recorded examples may help you get a feel for the data.
BINDER: 9E2 anti-CDH17 recombinant antibody (human IgG1) (antibody, V domains shown) VH: EVQLVESGGGVVRPGGSLRLSCAASGFTFDNYGMSWVRQAPGKGLEWVSGINWNGGSTYYADSVRGRFTISRDNAKNSLYLQMNSLRAEDTALYYCARGSRYNWSYDAFDIWGQGTLVTVSS VL: DIQMTQSPSSLSASVGDRVTITCRASQGVRNALGWYQQKPGKAPKRLIYAASSLQSGVPSRFSGSGSGTEFTLTISSLQPEDFATYYCLQHNSYPFTFGPGTKVEIKR
pKd: 9.51
--
BINDER: 10E11 anti-CDH17 recombinant antibody (human IgG1) (antibody, V domains shown) VH: EVQLVQSGTEVKKPGESLKISCKDSGYRFSSYWIGWVRQMPGKGLEWMGIIYPGDSDTRYSPSFQGQVTISADKSISTAYLQWRSLKASDTAMYYCARRGWVNYFDYWGQGTLVTVSS VL: DIQMTQSPSSVSASVGDRVTITCRASQGISNWLGWYQQKPGKAPKLLIYAASSLQSGVPSRFSGSGSGTDFTLTISSLQPEDFATYYCQQANSFPLTFGGGTKVEIKR
pKd: 10.00
--
BINDER: 1H10 anti-CDH17 recombinant antibody (human IgG1) (antibody, V domains shown) VH: QVQLVESGGGVVQPGRSLRLSCVASGFTFSSYGMHWVRQAPGKGLEWVTFIWYDGSNKNYADSVKGRFTISRDNSKNTLNLQMNSLRVEDTAVYYCARDRYSSGWDVFDYWGQGTLVTVSS VL: DIQMTQSPSSVSASVGDRVTITCRASQDISSWLAWYQQQPGKAPKLQIYAASSLQSGVPSRFSGSGSGTDFTLTISSLQPEDFATYYCQQAKSFPPTFGQGTKVEIKR
pKd: 9.51
--
BINDER: 14B12 anti-CDH17 recombinant antibody (human IgG1) (antibody, V domains shown) VH: QVQLQESGPGLVKPSETLSLTCTVSGGSINTYYRSWIRQPPGKGLEWIGYIYYSGNTNYNPSLKSRVTISADTSKNQFSLNLISVTAADTAMYYCARAQYGEEAFDIWGQGTLVTVSS VL: DIQMTQSPSSLSASVGDRVTITCRASQSITTYLNWYQQKPGKAPQLLIFAASRLQTGVPSRFSGSGSGTDFTLTISSLLPGDFATYYCQQSYNTPPTFGGGTKVEIKR
pKd: 10.15
--
BINDER: 4F9 anti-CDH17 recombinant antibody (human IgG1) (antibody, V domains shown) VH: QVQLQESGPGLVKPSGTLSLTCAVSGGSISSSNWWSWVRQPPGKGLEWIGEIYHSGSTSYNPSLKSRVTISVDKSKNQFSLKLSSVTAADTAVYYCARNDWGFPLDCWGQGTLVTVSS VL: DIQMTQSPSSLSASVGDRVTITCRASQSISSYLNWYQQKPGKAPKLLIYAASSLQSGVPSRFSGSGSGTHFTLTISSLQPEDFATYYCQQSHNIPITFGQGTRLEIKR
pKd: 8.77
--
BINDER: 2F9 anti-CDH17 recombinant antibody (human IgG1) (antibody, V domains shown) VH: EVQLVESGGGVVRPGGSLRLSCAASGFTFDDYGMSWVRQAPGKGLEWVSGLSWNGGNTYYADSVKGRFTISRDNAKNSLYLQMNSLRAEDTALYYCARGSRYNWNYDAFDIWGQGTLVTVSS VL: DIQMTQSPSSLSASIGDRVTITCRASQGIRNALGWYQQKPGKAPKRLIYAASNLQSGVPSRFSGSGSGTEFTLTISSLQPEDFATYYCLQHNSYPFTFGPGTKVEIKR
pKd: 9.77

// below: pKd requested for another binder
q: I am curious: what pKd value has been reported for 13C7 anti-CDH17 recombinant antibody (human IgG1) (antibody, V domains shown) VH: QITLKESGPTLVKPTQTLTLTCTFSGFSLSTSGVGVGWIRQPPGKALEWLALIYWNDDKRYRPSLKNRLTITKDTSKNQVVLTMTNMDPVDTATYYCTHYGVTAPFYNWFDPWGQGTLVTVSS VL: DIQMTQSPSSLSASVGDRVTITCRASQSITSYLNWYQQKPGKAPKLLIYAASSLQSGVPSRFSGSGSGTDFTLTISSLQPEDFATYYCQRSYSTLTFGGGTKVEIKR ?
a: 9.55
